Items are presented alongside their recorded LD50 at 168 h.
# assay: in vivo
# cond: mouse, in vivo, po
readout: LD50 at 168 h

INSERT INTO results (compound, test_value) VALUES
  ('CCn1cc(C(=O)O)c(=O)c2cc(F)c(N3CCC(N)C3)nc21.Cl (centres unmarked) [Compound 1]', '> 2000 mg/kg'),
  ('CCn1cc(C(=O)O)c(=O)c2cc(F)c(N3CCC(NC)C3)nc21.Cl (centres unmarked) [Compound 2]', '> 2000 mg/kg');

* * *

# Test system: Staphylococcus aureus Smith
# assay: In vitro antibacterial activity (MIC, agar dilution method)
# Format: cell-based
# cond: Staphylococcus aureus Smith; agar dilution; read-out: minimum inhibitory concentration (MIC)
Items are presented alongside their recorded MIC.
readout: MIC (µg/mL)

INSERT INTO measurements (compound, readout, test_value) VALUES
  ('CCn1cc(C(=O)O)c(=O)c2cc(Cl)c(N3CCCC3)nc21', 'MIC', 6.25),
  ('CCn1cc(C(=O)O)c(=O)c2cc(F)c(N3CCCC3)nc21', 'MIC', 0.39),
  ('CCn1cc(C(=O)O)c(=O)c2cc(F)c(N3CCC(NC)C3)nc21.Cl (stereo not shown)', 'MIC', 0.78),
  ('CCn1cc(C(=O)O)c(=O)c2cc(F)c(N3CCC(N)C3)nc21.Cl (stereo not shown)', 'MIC', 0.39);

* * *

# Tested on: Escherichia coli NIHJ JC-2
# assay: In vitro antibacterial activity (MIC, agar dilution method)
# Type: cell-based
# cond: NIHJJC2; Escherichia coli NIHJ JC-2; agar dilution; read-out: minimum inhibitory concentration (MIC)
Items are presented alongside their recorded MIC.
readout: MIC (µg/mL)

INSERT INTO assay_data (molecule, readout, test_value) VALUES
  ('CCn1cc(C(=O)O)c(=O)c2cc(F)c(N3CCC(N)C3)nc21.Cl (stereo not shown)', 'MIC', 0.2),
  ('CCn1cc(C(=O)O)c(=O)c2ccc(N3CCCC3)nc21', 'MIC', 25),
  ('CCn1cc(C(=O)O)c(=O)c2cnc(N3CCCC3)nc21', 'MIC', 25),
  ('CCn1cc(C(=O)O)c(=O)c2cc(Cl)c(N3CCCC3)nc21', 'MIC', 50);

* * *

Items are presented alongside their recorded MIC.
# Test system: Klebsiella pneumoniae No. 13
# assay: In vitro antibacterial activity (MIC, agar dilution method)
# Assay type: cell-based
# cond: Klebsiella pneumoniae No. 13; agar dilution; read-out: minimum inhibitory concentration (MIC)
readout: MIC

INSERT INTO assay_data (compound, test_value) VALUES
  ('CCn1cc(C(=O)O)c(=O)c2cc(F)c(N3CCC(N)C3)nc21.Cl (centres unmarked)', '0.2 µg/mL'),
  ('CCn1cc(C(=O)O)c(=O)c2cnc(N3CCCC3)nc21', '25 µg/mL'),
  ('CCn1cc(C(=O)O)c(=O)c2cc(Cl)c(N3CCCC3)nc21', '> 100 µg/mL'),
  ('CCn1cc(C(=O)O)c(=O)c2ccc(N3CCCC3)nc21', '> 200 µg/mL'),
  ('CCn1cc(C(=O)O)c(=O)c2cc(F)c(N3CCC(NC)C3)nc21.Cl (centres unmarked)', '0.39 µg/mL');

* * *

# Tested on: Pseudomonas aeruginosa No. 12
# assay: In vitro antibacterial activity (MIC, agar dilution method)
# Assay type: cell-based
# cond: Pseudomonas aeruginosa No. 12; agar dilution; read-out: minimum inhibitory concentration (MIC)
Items are presented alongside their recorded MIC.
readout: MIC (µg/mL)

INSERT INTO assay_data (molecule, readout, unit_of_measure, sign_qualifier, test_value) VALUES
  ('CCn1cc(C(=O)O)c(=O)c2cc(F)c(N3CCC(N)C3)nc21.Cl (stereo not shown)', 'MIC', 'µg/mL', '=', 0.78),
  ('CCn1cc(C(=O)O)c(=O)c2cc(F)c(N3CCC(NC)C3)nc21.Cl (stereo not shown)', 'MIC', 'µg/mL', '=', 1.56),
  ('CCn1cc(C(=O)O)c(=O)c2cnc(N3CCCC3)nc21', 'MIC', 'µg/mL', '=', 100),
  ('CCn1cc(C(=O)O)c(=O)c2cc(Cl)c(N3CCCC3)nc21', 'MIC', 'µg/mL', '>', 100);
